Reported inhibition values follow for various compounds
target_system: MAP kinase-activated protein kinase 3 (Homo sapiens)
protocol_conditions: at 1 µM
Description: GSK_PKIS: MAPKAPK3 mean inhibition at 1 uM [Nanosyn]
observable: inhibition

- CCN(CC)S(=O)(=O)c1ccc(OC)c(Nc2ncc(-c3ccccc3)o2)c1: -0.47%
- CN1CCC(n2cnc(-c3ccc(F)cc3)c2-c2ccnc(Nc3ccccc3)n2)CC1: 36.9%
- Fc1ccc(-c2nn3ncccc3c2-c2ccnc(Nc3ccc4c(c3)OCCO4)n2)cc1: 37.8%
- COc1cccc(-c2c[nH]c3c(N/N=C/c4ccncc4)ncnc23)c1: 11.1%
- COc1ccc(-c2cc3c(N)ncnc3o2)cc1: -1.91%
- Cc1cccc2c1NC(=O)/C2=N\Nc1ccc(S(N)(=O)=O)cc1: 2.04%
- CC(=O)NCc1cccc(C#Cc2cncnc2Nc2ccc(OCc3cccc(F)c3)c(Cl)c2)c1: -5.42%
- CCn1c(-c2nonc2N)nc2c(C#CC(C)(C)O)nc(OC[C@H](N)c3ccccc3)cc21: 2.95%
- COc1cc(N2CCN(C(C)C)CC2)ccc1Nc1nc(Nc2ccc(F)cc2C(N)=O)c2cc[nH]c2n1: 7.11%
- NC(=O)c1sc(-n2cnc3ccc(C(F)(F)F)cc32)cc1OCc1ccccc1Br: 4.34%
